Every entry's value here was drawn from patent US20060166900A1.

// values below are reported Total Known
# assay protocol: Stability indicating HPLC assay and related substances on storage (Example 3)
# Format: physicochemical
# condition info: 1 month, 40° C./75% RH
Reply numerically in %, unit not repeated.

Below, 3 compounds whose answers are already recorded.
- compound: "CN1CCC23c4c5ccc(O)c4OC2C(OC2OC(C(=O)O)C(O)C(O)C2O)C=CC3C1C5.CN1CCC23c4c5ccc(O)c4OC2C(OC2OC(C(=O)O)C(O)C(O)C2O)C=CC3C1C5.O=C(O)C=CC(=O)O (stereo not shown) [Morphine-6-glucuronide fumarate]"
  measured result: 1.43
- compound: "CN1CCC23c4c5ccc(O)c4OC2C(OC2OC(C(=O)O)C(O)C(O)C2O)C=CC3C1C5.CN1CCC23c4c5ccc(O)c4OC2C(OC2OC(C(=O)O)C(O)C(O)C2O)C=CC3C1C5.O=C(O)C=CC(=O)O (stereo not shown) [Morphine-6-glucuronide maleate]"
  measured result: 1.77
- compound: "CN1CC[C@]23c4c5ccc(O)c4O[C@H]2[C@@H](O[C@@H]2O[C@H](C(=O)O)[C@@H](O)[C@H](O)[C@H]2O)C=C[C@H]3[C@H]1C5 [Morphine-6-glucuronide base, morphine-6-β-D-glucuronide]"
  measured result: 0.93

For the compound Br.CN1CC[C@]23c4c5ccc(O)c4O[C@H]2[C@@H](O[C@@H]2O[C@H](C(=O)O)[C@@H](O)[C@H](O)[C@H]2O)C=C[C@H]3[C@H]1C5 [Morphine-6-glucuronide hydrobromide] , give its reported Total Known.
0.80
